test system: morningglory; assay: Test B pre/postemergence morningglory; type: in vivo, Ipomoea hederacea; details: Rate 125 g/ha, Postemergence; scale 0 to 10
So I've got a bunch of compounds here, and I need their Morningglory plant response rating values.
Give the figure only, with no unit attached.

Task: Which Morningglory plant response rating reading was recorded for the compound COCCOCn1c(=O)on(C(=O)N(c2ccc(F)cc2)C(C)C)c1=O [Compound 220] ?
Output: 5

Task: Recorded Morningglory plant response rating for Cc1ccccc1-n1c(=O)on(C(=O)N(c2ccccc2F)C(C)C)c1=O [Compound 204] , please?
Output: 3

Task: Which Morningglory plant response rating value is on record for Cc1ccccc1-n1c(=O)on(C(=O)N(c2ccc(S(C)(=O)=O)cc2)C(C)C)c1=O [Compound 203] ?
Output: 0

Task: Recorded Morningglory plant response rating of Cc1ccccc1-n1c(=O)on(C(=O)N(c2ccc(-c3ccccc3)cc2)C(C)C)c1=O [Compound 187] , please.
Output: 0

Task: So what's the measured Morningglory plant response rating for this one? Cc1cc(C)c(-n2c(=O)on(C(=O)N(c3ccc(F)cc3)C(C)C)c2=O)c(Br)c1 [Compound 224]
Output: 2
